# tested_system: human TLR8 (Homo sapiens)
# Sequence (Q9NR97 27-1041): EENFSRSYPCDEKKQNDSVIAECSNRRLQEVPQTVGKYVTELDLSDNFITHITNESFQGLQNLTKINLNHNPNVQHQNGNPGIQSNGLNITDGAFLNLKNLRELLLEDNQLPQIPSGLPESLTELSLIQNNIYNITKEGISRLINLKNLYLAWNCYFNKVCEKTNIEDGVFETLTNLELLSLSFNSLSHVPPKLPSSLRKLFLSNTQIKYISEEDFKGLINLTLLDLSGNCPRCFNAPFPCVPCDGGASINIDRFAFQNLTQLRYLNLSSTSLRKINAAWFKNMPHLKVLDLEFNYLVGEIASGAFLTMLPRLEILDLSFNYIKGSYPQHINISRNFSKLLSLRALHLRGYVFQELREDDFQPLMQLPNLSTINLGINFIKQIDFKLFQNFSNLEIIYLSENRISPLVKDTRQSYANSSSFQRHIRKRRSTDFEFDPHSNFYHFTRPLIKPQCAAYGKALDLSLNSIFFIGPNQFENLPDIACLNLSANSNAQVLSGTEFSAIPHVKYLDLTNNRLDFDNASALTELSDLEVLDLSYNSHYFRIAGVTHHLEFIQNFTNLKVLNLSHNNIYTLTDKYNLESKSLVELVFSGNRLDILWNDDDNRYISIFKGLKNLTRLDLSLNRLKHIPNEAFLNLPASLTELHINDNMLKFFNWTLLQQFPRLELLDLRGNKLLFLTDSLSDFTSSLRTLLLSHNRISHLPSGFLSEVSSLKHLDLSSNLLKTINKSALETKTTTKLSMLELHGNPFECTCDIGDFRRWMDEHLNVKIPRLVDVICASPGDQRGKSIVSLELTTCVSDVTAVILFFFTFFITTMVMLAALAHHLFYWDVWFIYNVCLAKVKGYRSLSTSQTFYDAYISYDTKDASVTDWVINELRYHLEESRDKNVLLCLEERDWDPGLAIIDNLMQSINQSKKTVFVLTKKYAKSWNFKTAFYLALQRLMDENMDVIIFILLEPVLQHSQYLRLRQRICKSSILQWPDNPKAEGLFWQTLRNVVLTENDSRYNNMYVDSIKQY
# assay_remarks: TLR8 inhibition reporter assay (HEK-Blue cells, SEAP reporter, R848 stimulation)
# test_parameters: HEK-Blue cells overexpressing human TLR8, SEAP reporter, R848 15.9 μM
Group membership follows IC50 per the scheme bottom (below 3 nM), middle (3 nM to below 10 nM), top (10 nM or more)

{"columns": ["compound", "discrete_label"],
 "data": [
  ["COc1cc(-c2[nH]c3ccc(C4CCC(NC5CC5)CC4)cc3c2C(C)C)cn2ncnc12 (stereo not drawn) [Example 10]", "bottom"],
  ["COCCN1CCCC(c2ccc3[nH]c(-c4cc(OC)c5ncnn5c4)c(C(C)C)c3c2)C1 (stereo not drawn) [Example 251]", "middle"],
  ["COc1cc(-c2[nH]c3ccc(C4CCC(NCC(N)=O)CC4)cc3c2C(C)C)cn2ncnc12 (stereo not drawn) [Example 109]", "middle"],
  ["Cc1cc(-c2[nH]c3ccc(C4CN(CC(=O)N(C)C)C4)cc3c2C(C)C)cn2ncnc12", "top"],
  ["COc1cc(-c2[nH]c3ccc(C4CCC(NC(=O)CNC5(C)COC5)CC4)cc3c2C(C)C)cn2ncnc12 (stereo not drawn)", "top"],
  ["Cc1cc(-c2[nH]c3ccc(C4CN(C(=O)CN(C)C)C(C)(C)CO4)cc3c2C(C)C)cn2ncnc12 (single isomer, unassigned) [Example 372]", "top"],
  ["Cc1c(-c2[nH]c3ccc(C4CCC(NC5COC5)CC4)cc3c2C(C)C)cn2ncnc2c1C (single isomer, unassigned) [Example 86]", "bottom"],
  ["Cc1cc(-c2[nH]c3ccc(CCN4CC[C@H](F)C4)cc3c2C(C)C)cn(C)c1=O", "bottom"],
  ["Cc1cc(-c2[nH]c3ccc(C4CN(C)CCO4)cc3c2C(C)C)cn2ncnc12 (stereo not drawn) [Example 293]", "bottom"],
  ["Cc1cc(-c2[nH]c3ccc(C4CCCN(C(=O)CN5CCOCC5)C4)cc3c2C(C)C)cc(C)n1 (stereo not drawn) [Example 196]", "top"],
  ["Cc1c(-c2[nH]c3ccc(C4CN(CC5(C)COC5)C4)cc3c2C(C)C)cn2cnnc2c1C", "top"],
  ["Cc1c(-c2[nH]c3ccc(C4CN(C)C4)cc3c2C(C)C)cn2ncnc2c1C", "bottom"],
  ["Cc1c(-c2[nH]c3ccc(C4CNCCO4)cc3c2C(C)C)cn2ncnc2c1C (stereo not drawn) [Example 287]", "bottom"],
  ["Cc1cc(-c2[nH]c3ccc(C4CN(C(=O)CN(C)C)CCO4)cc3c2C(C)C)cn2ncnc12 (stereo not drawn) [Example 331]", "middle"],
  ["Cc1c(-c2[nH]c3ccc(C4CN(CC(N)=O)CCO4)cc3c2C(C)C)cn2ncnc2c1C (stereo not drawn) [Example 319]", "top"],
  ["COc1cc(-c2[nH]c3ccc(CC4CN(C(=O)CN(C)C)C4)cc3c2C(C)C)cn2ncnc12", "middle"],
  ["CNC(=O)CN1CCOC(c2ccc3[nH]c(-c4cn5ncnc5c(C)c4C)c(C(C)C)c3c2)C1 (stereo not drawn) [Example 311]", "top"],
  ["CC(C)c1c(-c2ccnc3[nH]ncc23)[nH]c2ccc(CCC3CCNCC3)cc12", "middle"],
  ["Cc1c(-c2[nH]c3ccc(C4CCC(N5CC6(COC6)C5)CC4)cc3c2C(C)C)cn2ncnc2c1C (stereo not drawn) [Example 113]", "bottom"],
  ["Cc1cc(-c2[nH]c3ccc(C4CCC(N)CC4)cc3c2C(C)C)cn2ncnc12 (single isomer, unassigned) [Example 4]", "top"],
  ["Cc1c(-c2[nH]c3ccc(C4CN(CCS(C)(=O)=O)C4)cc3c2C(C)C)cn2ncnc2c1C", "middle"],
  ["COc1ccc(-c2[nH]c3ccc(C4CCC5CC(C4)N5)cc3c2C(C)C)cc1OC (stereo not drawn)", "top"],
  ["Cc1cc(-c2[nH]c3ccc(C4CCC(NC(=O)CN(C)C)CC4)cc3c2C(C)C)cn2ncnc12 (stereo not drawn)", "bottom"],
  ["Cc1c(-c2[nH]c3ccc(C4CC(N)C4)cc3c2C(C)C)cn(C)c(=O)c1C (stereo not drawn) [Example 492]", "bottom"],
  ["COc1cc(-c2[nH]c3ccc(C4CCCN(C5COC5)C4)cc3c2C(C)C)cn2ncnc12 (stereo not drawn) [Example 242]", "bottom"],
  ["COCCN1CC(c2ccc3[nH]c(-c4cn(C)c(=O)c(C)c4C)c(C(C)C)c3c2)C1", "middle"],
  ["Cc1cc(-c2[nH]c3ccc(C4CN(C(=O)CN(C)C)C(C)(C)CO4)cc3c2C(C)C)cn2ncnc12 (single isomer, unassigned) [Example 373]", "top"],
  ["Cc1c(-c2[nH]c3ccc(C4CC5CN(C6CCOC6)CC5C4)cc3c2C(C)C)cn2cnnc2c1C (stereo not drawn)", "top"],
  ["COc1ccc(-c2[nH]c3ccc(C4CCCN(C(=O)CN(C)C)C4)cc3c2C(C)C)cc1OC (stereo not drawn)", "top"],
  ["CNCCN1CCCC(c2ccc3[nH]c(-c4ccnc(C)c4)c(C(C)C)c3c2)C1 (stereo not drawn) [Example 255]", "middle"]
]}
